# Tested on: MCF-7 (Human mammary gland adenocarcinoma)
# protocol.summary: Cytotoxicity testing (MTS) on MCF-7
# Format: cell-based
Recorded measurements of logIC50, one per entry
quantity: logIC50 (log10 M)

{"molecule": "COc1cc2c(c(OC(=O)C(C)C)c1OC)-c1ccc(OC)c(=O)cc1[C@@H](NC(C)=O)CC2 [Compound 5]", "assayed.target": "MCF-7 (Human mammary gland adenocarcinoma)", "quantity": "logIC50", "reported.measurement": "−5.25"}
{"molecule": "CCC(=O)Oc1c(OC)c(OC)cc2c1-c1ccc(OC)c(=O)cc1[C@@H](NC(C)=O)CC2 [Compound 4]", "assayed.target": "MCF-7 (Human mammary gland adenocarcinoma)", "quantity": "logIC50", "reported.measurement": "−5.23"}
{"molecule": "COc1cc2c(c(OCC(C)C)c1OC)-c1ccc(OC)c(=O)cc1[C@@H](NC(C)=O)CC2 [Compound 7a]", "assayed.target": "MCF-7 (Human mammary gland adenocarcinoma)", "quantity": "logIC50", "reported.measurement": "−6.17"}
{"molecule": "CCCOc1cc2c(c(OC)c1OC)-c1ccc(SC)c(=O)cc1[C@@H](NC(C)=O)CC2 [Compound 43]", "assayed.target": "MCF-7 (Human mammary gland adenocarcinoma)", "quantity": "logIC50", "reported.measurement": "−8.71"}
